- protocol_details: Solubility in biological media (FaSSIF, FeSSIF), HPLC detection
- Format: physicochemical
- study_conditions: FaSSIF (pH 6.5), 37° C., 24 h
recorded_endpoint: solubility at 24 h (µg/mL)
Response body: numeric value in µg/mL, unit text excluded.

Request the reported solubility at 24 h associated with O=C(N[C@@H](Cc1ccc(N2C(=O)C3(CC3)c3ccc(F)c(F)c32)cc1)C(=O)O)c1c(F)cccc1Cl [Crystal Form A] 2220

###

- protocol_details: Solid-state stability under high temperature, high humidity, light exposure and acceleration conditions (HPLC purity, XRPD form)
- Assay type: physicochemical
- study_conditions: solid state, Light exposure 4500 lux, 7d
recorded_endpoint: remaining at 168 h (%)
Response body: numeric value in %, unit text excluded.

Request the reported remaining at 168 h associated with O=C(N[C@@H](Cc1ccc(N2C(=O)C3(CC3)c3ccc(F)c(F)c32)cc1)C(=O)O)c1c(F)cccc1Cl [Crystal Form A] 99.2
